Sourced from patent US20100324282A1

Test: Distribution ratio of phosphotungstic acid to organic solvent and water (saturated aqueous solution of phosphotungstic acid)
Type: physicochemical
Conditions: First phase (from top), ICP
Value type: Distribution ratio of phosphotungstic acid (based on tungsten) (%)

CCCCCCCCO : 1.3
CCOCC : 0.01

I: CCCCOCC
II: CCCCCCC(C)O (stereo not shown)
Lookup: Please indicate which item has the smaller measured Distribution ratio of phosphotungstic acid (based on tungsten) (%): I versus II Answer by quoting the chosen item's label.
Found: I
(I: 0.1%, II: 1.0%)

====

Test: Assay of solubility of glucose in organic solvent
Type: physicochemical
Conditions: in the listed organic solvent, room temperature
Quick reference for Solubility of glucose (wt %) among some compounds

Use these answered entries as a reference point.
CCCCCCC(C)O (stereo not shown) : <0.043 wt %
CCOCC : <0.025 wt %
CCCCOCC : <0.03 wt %

Lookup: Look up and report measured Solubility of glucose (wt %) for this entry: CCCCCCCCO
Found: <0.045 wt %

====

Test: Assay of solubility of phosphotungstic acid in organic solvent
Assay type: physicochemical
Conditions: in the listed organic solvent, room temperature
Value type: Solubility of phosphotungstic acid (wt %)

CCCCCCC(C)O (stereo not shown) [2-Octanol] : 200

I: CCCCCCCCO [1-Octanol]
II: CCCCOCC [n-Butyl ethyl ether]
Lookup: Parameter check: reported Solubility of phosphotungstic acid (wt %) is higher for which label, I or II ? Answer by quoting the chosen item's label.
Found: II

====

Experiment: Distribution ratio of phosphotungstic acid to organic solvent and water (powdery phosphotungstic acid)
Format: physicochemical
Conditions: First phase (from top), ICP
Value type: Distribution ratio of phosphotungstic acid (based on tungsten) (%)

CCCCCCCCO : 97.7

I: CCCCCCC(C)O (stereo not shown)
II: CCCCOCC
Lookup: Please indicate which item has the smaller measured Distribution ratio of phosphotungstic acid (based on tungsten) (%): I versus II Answer by quoting the chosen item's label.
Found: II

====

Assay: Distribution ratio of phosphotungstic acid to organic solvent and water (saturated aqueous solution of phosphotungstic acid)
Assay type: physicochemical
Settings: Third phase (from top), ICP
Value type: Distribution ratio of phosphotungstic acid (based on tungsten) (%)

Use these answered entries as a reference point.
CCOCC [Diethyl ether] : 98.5
CCCCCCC(C)O (stereo not shown) [2-Octanol] : 1.3

A: CCCCCCCCO [1-Octanol]
B: CCCCOCC [n-Butyl ethyl ether]
Lookup: Please indicate which item has the smaller measured Distribution ratio of phosphotungstic acid (based on tungsten) (%): A versus B Answer by quoting the chosen item's label.
Found: A
(A: 1.4%, B: 94.8%)

====

Assay: Distribution ratio of phosphotungstic acid to organic solvent and water (saturated aqueous solution of phosphotungstic acid)
Type: physicochemical
Details: Second phase (from top), ICP
Method: The resultant was stirred and allowed to stand, followed by phase separation. Samples were obtained from each phase in an amount of 1 ml and the samples were dried using a centrifuge. The dried specimens were analyzed by the ICP mass spectrometer. Water was dissolved in each phase in order to identify an aqueous phase.
Value type: Distribution ratio of phosphotungstic acid (based on tungsten) (%)

Use these answered entries as a reference point.
CCOCC [Diethyl ether] : 1.5
CCCCCCCCO [1-Octanol] : 97.3

A: CCCCCCC(C)O (stereo not shown) [2-Octanol]
B: CCCCOCC [n-Butyl ethyl ether]
Lookup: Please indicate which item has the smaller measured Distribution ratio of phosphotungstic acid (based on tungsten) (%): A versus B Answer by quoting the chosen item's label.
Found: B
